This collection of values is drawn from paper PMC2925893.

Test system: HIV-1 strains
Assay: microbe, parasite or virus in culture
Type: cell-based
Details: Human immunodeficiency virus 1, CCR5, PBMC; Clade G (JV1083), CCR5
EXPERIMENTAL READOUT: EC50 (nM)
Lab book: enter the figure in nM, no units written.

Prompt line: If you can, please state the reported EC50 value of Cc1cn([C@H]2C[C@H](N=[N+]=[N-])[C@@H](CO)O2)c(=O)[nH]c1=O .
Response line: 4

====

System: HIV-2 strains
Test: Anti-HIV activity in PHA-stimulated human PBMCs, supernatant RT activity readout
Type: cell-based
Conditions: Human immunodeficiency virus 2; PBMC; HIV-2 CBL-20; AZT column
EXPERIMENTAL READOUT: EC50 (nM)
Lab book: enter the figure in nM, no units written.

Prompt line: For the record Cc1cn([C@H]2C[C@H](N=[N+]=[N-])[C@@H](CO)O2)c(=O)[nH]c1=O , what value of EC50 is listed for HIV-2 strains?
Response line: 1

====

System: HIV-1 strains
Assay: microbe, parasite or virus in culture
Format: cell-based
Settings: Human immunodeficiency virus 1, PBMC, PBMC; Clade D (92UG046), CXCR4
EXPERIMENTAL READOUT: pEC50
Entry type: numeric. Quantity: pEC50, the -log10 of concentration in molar units.

Prompt line: If you can, please state the reported pEC50 value of Cc1cn([C@H]2C[C@H](N=[N+]=[N-])[C@@H](CO)O2)c(=O)[nH]c1=O .
Response line: 8.52
